Documented growth across a set of compounds
Test system: SR leukemia
assay.procedure: NCI-60 one-dose screen, 48 h (100 = growth as untreated, 0 = no growth, -100 = all killed)
experimental.conditions: 10 µM unless noted
This is part of a sample that, as a whole, favours compounds with a hit. Of some 83,000 tested, about 20% had one in any assay. Calls of active or inactive are those of the source. The calls were made as follows: active = growth percent below 10; inactive = the rest.
measurement.kind: growth

1) COc1ccc2[nH]c(=O)c(CSc3nccc(-c4ccc(OC)c(OC)c4)n3)cc2c1	23.1% (inactive)
2) Cn1cc(-c2cc(N)n3nc(-c4cn(C)c5ccccc45)cc3n2)c2cc(Cl)ccc21	4.5% (active)
3) N#Cc1c(-c2cccnc2)cc(-c2ccc3ccccc3c2)[nH]c1=O	73.7% (inactive)
4) CCCCSc1nc(Nc2ccc(C(C)=O)cc2)c(C#N)c(-c2ccc(OC)cc2)n1	70.9% (inactive)
5) CC(C)C(C(=O)O)n1c(O)c(/C=C2/C=c3cc4c(cc3=NC2=O)OCO4)sc1=S (stereo not given)	90.5% (inactive)

---

Documented growth across a set of molecules
Test system: MOLT-4 leukemia
assay.procedure: NCI-60 one-dose screen, 48 h (100 = growth as untreated, 0 = no growth, -100 = all killed)
experimental.conditions: 10 µM unless noted
Method: Growth inhibition of the MOLT-4 human tumor cell line is measured as a screen for anti-cancer activity. Cells are grown in 96 well plates and exposed to the test compound for 48 hours. Compounds are tested at a single concentration, which is 10^-5 M for most compounds. The reported endpoint is percent growth (GI% or GIPRCNT), where numbers from 0 - 100% represent growth inhibition, and numbers from -100% - 0 represent cell death. For example, a value of 40 represents 60% growth inhibition. […]
About 83,000 compounds went through this panel and 20% of them were active in at least one assay; those are over-represented in the sample as a whole. Active and inactive are the calls of the source. How the source made its calls: active means growth percent below 10; inactive means the rest.
measurement.kind: growth

1. CC(=O)Nc1cccc(Nc2nc(NCc3ccccc3)c3ccccc3n2)c1	-61% (active)
2. CN(C)CCOc1ccc(C(=O)C2[C@H](c3ccc(Cl)cc3)[C@@H](c3ccccc3)NC23C(=O)Nc2ccc(Br)cc23)cc1 (stereo partly drawn)	-52.3% (active)
3. Cn1cc(-c2cc3nc(-c4cn(C)c5ncc(Br)cc45)cc(N)n3n2)c2ccccc21	-42% (active)
4. N#Cc1c(-c2cccc(Cl)c2Cl)cc(-c2ccc3ccccc3c2)[nH]c1=O	71.5% (inactive)
5. O=C1c2c(c3c4cc(F)ccc4oc3c3[nH]c4ccc(Br)cc4c23)C(=O)N1O	7.83% (active)
6. CC(=O)Nc1ccc(-n2cnc3ccc(-c4ccc(O)cc4)cc32)cc1	11.3% (inactive)
7. Nc1nnc(-c2c[nH]c3ccc(Br)cc23)c(-c2c[nH]c3ncc(Br)cc23)n1	2.51% (active)
8. C=C1CC[C@@H]2[C@]3(C)COC(c4cn[nH]c4-c4ccc(F)cc4)O[C@@H]3CC[C@@]2(C)[C@@H]1C/C=C1/C(=O)OCC1O (stereo partly drawn)	1.15% (active)
9. O=C(N1c2ccccc2Sc2ccccc21)n1ccc2cccnc21	38.3% (inactive)
10. Cc1ccc(-n2c(-c3cc4ccccc4nc3Cl)noc2=O)cc1	76.5% (inactive)
11. COc1cc(NC(=O)c2cccc(C3CCc4c(cc(OC)c(OC)c4OC)O3)c2)cc(OC)c1OC (stereo not drawn)	11.8% (inactive)
12. Cc1cc(C)cc(C(=O)Nc2cccc(-c3cn(-c4ccc(S(N)(=O)=O)cc4)nn3)c2)c1	25.3% (inactive)
13. Cc1ccc(C(=O)C(c2c[nH]c3ccccc23)c2c[nH]c3ccccc23)cc1	5.7% (active)
14. O=C(COc1ccc(NC(=O)Nc2ccc(Cl)c(Cl)c2)cc1)N=Nc1c(O)[nH]c2ccccc12	1.27% (active)
15. Cn1cc(-c2cc3nc(-c4c[nH]c5ccc(Br)cc45)cc(N)n3n2)c2ccccc21	-33.8% (active)
16. C=C1CC[C@@H]2[C@]3(C)COC(c4cn(-c5ccccc5)nc4-c4ccccc4)O[C@@H]3CC[C@@]2(C)[C@@H]1C/C=C1/C(=O)OC[C@H]1O (stereo partly drawn)	-45.7% (active)
17. COc1ccc(C(=O)/C=C/c2ccc(OCc3ccccc3)c(OC)c2)cc1OC	9.48% (active)
18. COc1ccc2c(c1)c(-c1cc3nc(-c4cn(C)c5ncccc45)cc(N)n3n1)cn2C	-42.5% (active)
